EXPERIMENT SUMMARY: ATG_Ets_CIS: Attagene CIS-FACTORIAL HepG2 Assay for human Erythroblast Transformation Specific (ETS) (AID 2282941)
PARTICULARS: HepG2 ETS cis-reporter transcription, actives raise or lower the signal
The source made the active and inactive calls. How the source made its calls: active means hit-call score of the fitted dose curve at least 0.9, where 1 is the maximum; inactive means score below 0.9.
Outcome codes: t for active, f for inactive

[
  {
    "MOLECULE": "[Cl-].[Cl-].[Hg+2]",
    "CLASS ASSIGNMENT": "f"
  },
  {
    "MOLECULE": "ClCCOCCCl",
    "CLASS ASSIGNMENT": "f"
  },
  {
    "MOLECULE": "Clc1ccc(Cl)c(Cl)c1",
    "CLASS ASSIGNMENT": "f"
  },
  {
    "MOLECULE": "CCCCCCCCCCCCCN1CC(C)OC(C)C1 (configuration not stated)",
    "CLASS ASSIGNMENT": "f"
  },
  {
    "MOLECULE": "CN(C)C(=O)Nc1ccc(Cl)cc1",
    "CLASS ASSIGNMENT": "f"
  },
  {
    "MOLECULE": "Oc1ccccc1Cl",
    "CLASS ASSIGNMENT": "f"
  },
  {
    "MOLECULE": "COc1cc(C=O)cc2c1[C@H](COC(N)=O)[C@]1(OC(C)=O)ON2C[C@H]2[C@@H]1N2C(C)=O",
    "CLASS ASSIGNMENT": "t"
  }
]
